- Measured Target: HLA-DR DRB4*0101 (human)
- Protocol Summary: competition with 125I-labelled peptide for purified HLA-DR
Measured Quantity: pIC50
Friendly reminder that pIC50 comes from taking -log10 of the concentration in mol/L.

Quick check: pIC50 of RREVHIYYLEKANKI (modifications not checked) [Flu.PA.127] ?
8.30

These entries and their values trace back to patent US20080032921A1.
